The following compounds are listed with their measured EC50 values.
Target: TRPML1 (Homo sapiens)
Sequence (Q9GZU1 whole entry L15A/L16A/L577A/L578A, form open): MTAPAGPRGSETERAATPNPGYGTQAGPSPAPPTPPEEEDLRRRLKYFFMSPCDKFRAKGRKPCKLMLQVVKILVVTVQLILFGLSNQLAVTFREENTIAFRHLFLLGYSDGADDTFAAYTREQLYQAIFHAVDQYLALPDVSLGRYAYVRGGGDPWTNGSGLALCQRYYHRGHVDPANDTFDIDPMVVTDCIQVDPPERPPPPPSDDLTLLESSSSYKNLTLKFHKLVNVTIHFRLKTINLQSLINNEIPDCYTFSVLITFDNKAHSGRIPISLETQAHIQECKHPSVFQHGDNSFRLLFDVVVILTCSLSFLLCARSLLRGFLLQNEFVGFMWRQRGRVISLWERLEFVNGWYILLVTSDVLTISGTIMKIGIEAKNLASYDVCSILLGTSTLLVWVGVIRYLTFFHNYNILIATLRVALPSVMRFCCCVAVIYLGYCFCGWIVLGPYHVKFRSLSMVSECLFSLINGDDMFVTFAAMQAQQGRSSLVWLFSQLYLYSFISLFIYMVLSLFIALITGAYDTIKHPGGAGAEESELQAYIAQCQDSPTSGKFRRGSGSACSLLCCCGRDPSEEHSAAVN
Test: Fluorescent TRPML1 assay (Fluo4-AM calcium fluorescence in doxycycline-induced HEK-293 Trex cells)
Format: cell-based

Recorded EC50, per entry:
{"compound": "C[C@@H]1CN(c2ncnc3c2c(C2CC2)cn3-c2cccc(Cl)c2)[C@@H](C)CN1C(=O)OC1(C)CC1", "endpoint": "EC50", "valueReported": "100 to 500 nM"}
{"compound": "CC(C)c1cn(-c2cc(C(F)(F)F)ccn2)c2ncnc(N3C[C@@H](C)N(C(=O)OC(C)(C)C)C[C@@H]3C)c12", "endpoint": "EC50", "valueReported": "< 100 nM"}
{"compound": "C[C@@H]1CN(c2ncnc3c2c(C2CCC2)cn3-c2cc(C#N)ccn2)[C@@H](C)CN1C(=O)OC(C)(C)C", "endpoint": "EC50", "valueReported": "< 100 nM"}
{"compound": "C[C@@H]1CN(c2ncnc3c2c(C(F)F)cn3-c2cc(F)cc(F)c2)[C@@H](C)CN1C(=O)OC1(C)CC1", "endpoint": "EC50", "valueReported": "100 to 500 nM"}
{"compound": "Cc1cn(-c2cccc(C(F)(F)F)c2)c2ncnc(N3CCN(C(=O)OC(C)(C)C)C[C@@H]3C)c12", "endpoint": "EC50", "valueReported": "< 100 nM"}

QUERY: Look at this compound and give its reported EC50. `Cc1cn(-c2cc(C(F)(F)F)ccn2)c2ncnc(N3C[C@@H](C)N(C(=O)OC(C)(C)C)C[C@@H]3C)c12`
RESULT: < 100 nM

QUERY: Look at this compound and give its reported EC50. `CCCN(C)c1cn(-c2cc(C#N)ccn2)c2ncnc(N3C[C@@H](C)N(C(=O)OC(C)(C)C)C[C@@H]3C)c12`
RESULT: < 100 nM

QUERY: Look at this compound and give its reported EC50. `Cc1cn(-c2cc(C(F)(F)F)ccn2)c2ccnc(N3C[C@@H](C)N(C(=O)OC(C)(C)C)C[C@@H]3C)c12`
RESULT: < 100 nM

QUERY: Look at this compound and give its reported EC50. `[2H]C([2H])([2H])[C@@H]1CN(c2ncnc3c2c(C(F)(F)F)cn3-c2cc(C#N)ccn2)[C@@H](C)CN1C(=O)OC(C)(C)C`
RESULT: < 100 nM

QUERY: Look at this compound and give its reported EC50. CC1CC1c1cn(-c2cc(C#N)ccn2)c2ncnc(N3CCN(C(=O)OC(C)(C)C)C[C@@H]3C)c12 (stereo partly drawn)
RESULT: < 100 nM

QUERY: Look at this compound and give its reported EC50. `Cc1cn(-c2cccc(C#N)c2)c2ncnc(N3C[C@@H](C)N(C(=O)OC(C)(C)C)C[C@@H]3C)c12`
RESULT: < 100 nM

QUERY: Look at this compound and give its reported EC50. `C[C@H]1CN(C(=O)OC2(C)CC2)CCN1c1ncnc2c1c(C(F)(F)F)cn2-c1cccc(Cl)c1`
RESULT: 100 to 500 nM
